# tested system: Torsin-1A (Homo sapiens) (UniProt O14656)
# Sequence (O14656 whole entry, looked up): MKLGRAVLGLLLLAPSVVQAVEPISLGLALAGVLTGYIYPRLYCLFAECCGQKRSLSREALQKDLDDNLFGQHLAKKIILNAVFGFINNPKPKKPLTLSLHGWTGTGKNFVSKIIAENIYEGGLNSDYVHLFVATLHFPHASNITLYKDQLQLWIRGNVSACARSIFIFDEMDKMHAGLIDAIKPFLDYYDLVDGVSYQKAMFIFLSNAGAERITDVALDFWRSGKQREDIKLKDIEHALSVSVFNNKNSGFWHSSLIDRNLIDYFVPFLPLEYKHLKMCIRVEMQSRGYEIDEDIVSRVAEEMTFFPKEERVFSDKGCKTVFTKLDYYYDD
# test name: torsin A binders from cell lysate, primary screen, small-molecule microarray, wild-type, 635/667 nm (AID 1149)
# condition notes: COS7 hTOR1A-WT lysate, 635 nm fluorescence, higher = more signal
For each entry below, report its composite z-score value.
One number for each entry.

Would you please look over these solved cases?
INSERT INTO assay_data (molecule, test_readout, reported_value) VALUES
  ('CC(C)C[C@@H]1NC(=O)[C@@H]2C[C@H](C(=O)NCCCCCCNC(=O)CS)[C@H](c3ccc(O)cc3)N2C1=O', 'composite z-score', 0.887),
  ('COc1ccc(NN2C(C(O)c3ccccc3)C=CC3C(=O)N(C4CCCCC4)C(=O)C32)cc1 (configuration not stated)', 'composite z-score', 0.473),
  ('COCCCNC(=O)[C@]1(Cc2ccccc2N=[N+]=[N-])N=C(c2ccc(OCCCO)cc2)O[C@@H]1c1ccccc1', 'composite z-score', 0.303),
  ('C=CCNC(=O)[C@H]1[C@@H]2C(=O)O[C@@H](c3ccccc3)[C@@H](c3ccccc3)N2[C@@H](c2ccc(O)cc2)[C@]12C(=O)Nc1ccc(C#CCC(C(=O)OC)C(=O)OC)cc12', 'composite z-score', 0.685),
  ('C[N+](C)(C)CCCC[C@@H]1NC(=O)[C@H]2C[C@@H](C(=O)NCCCCCN)[C@@H](c3ccc(O)cc3)N2C1=O', 'composite z-score', 0.926),
  ('CCCCC(=C=CC[C@@H](O)c1ccccc1OCCO)C[C@@H](O)c1ccccn1', 'composite z-score', -0.245);

Okay, next one:
Report measured composite z-score on Torsin-1A (Homo sapiens) (UniProt O14656); entry: COC(=O)[C@@]1(Cc2ccc(OC)cc2)[C@H]2c3cc(C(=O)N(C)C)n(Cc4c(CO)[nH]cc(C)c4=O)c3C[C@H]2CN1C(=O)c1ccccc1
0.351
